- test-system: glucan synthase (GS) prepared from Candida albicans MY1055 (Candida albicans)
- Sequence (O13428 1-1897): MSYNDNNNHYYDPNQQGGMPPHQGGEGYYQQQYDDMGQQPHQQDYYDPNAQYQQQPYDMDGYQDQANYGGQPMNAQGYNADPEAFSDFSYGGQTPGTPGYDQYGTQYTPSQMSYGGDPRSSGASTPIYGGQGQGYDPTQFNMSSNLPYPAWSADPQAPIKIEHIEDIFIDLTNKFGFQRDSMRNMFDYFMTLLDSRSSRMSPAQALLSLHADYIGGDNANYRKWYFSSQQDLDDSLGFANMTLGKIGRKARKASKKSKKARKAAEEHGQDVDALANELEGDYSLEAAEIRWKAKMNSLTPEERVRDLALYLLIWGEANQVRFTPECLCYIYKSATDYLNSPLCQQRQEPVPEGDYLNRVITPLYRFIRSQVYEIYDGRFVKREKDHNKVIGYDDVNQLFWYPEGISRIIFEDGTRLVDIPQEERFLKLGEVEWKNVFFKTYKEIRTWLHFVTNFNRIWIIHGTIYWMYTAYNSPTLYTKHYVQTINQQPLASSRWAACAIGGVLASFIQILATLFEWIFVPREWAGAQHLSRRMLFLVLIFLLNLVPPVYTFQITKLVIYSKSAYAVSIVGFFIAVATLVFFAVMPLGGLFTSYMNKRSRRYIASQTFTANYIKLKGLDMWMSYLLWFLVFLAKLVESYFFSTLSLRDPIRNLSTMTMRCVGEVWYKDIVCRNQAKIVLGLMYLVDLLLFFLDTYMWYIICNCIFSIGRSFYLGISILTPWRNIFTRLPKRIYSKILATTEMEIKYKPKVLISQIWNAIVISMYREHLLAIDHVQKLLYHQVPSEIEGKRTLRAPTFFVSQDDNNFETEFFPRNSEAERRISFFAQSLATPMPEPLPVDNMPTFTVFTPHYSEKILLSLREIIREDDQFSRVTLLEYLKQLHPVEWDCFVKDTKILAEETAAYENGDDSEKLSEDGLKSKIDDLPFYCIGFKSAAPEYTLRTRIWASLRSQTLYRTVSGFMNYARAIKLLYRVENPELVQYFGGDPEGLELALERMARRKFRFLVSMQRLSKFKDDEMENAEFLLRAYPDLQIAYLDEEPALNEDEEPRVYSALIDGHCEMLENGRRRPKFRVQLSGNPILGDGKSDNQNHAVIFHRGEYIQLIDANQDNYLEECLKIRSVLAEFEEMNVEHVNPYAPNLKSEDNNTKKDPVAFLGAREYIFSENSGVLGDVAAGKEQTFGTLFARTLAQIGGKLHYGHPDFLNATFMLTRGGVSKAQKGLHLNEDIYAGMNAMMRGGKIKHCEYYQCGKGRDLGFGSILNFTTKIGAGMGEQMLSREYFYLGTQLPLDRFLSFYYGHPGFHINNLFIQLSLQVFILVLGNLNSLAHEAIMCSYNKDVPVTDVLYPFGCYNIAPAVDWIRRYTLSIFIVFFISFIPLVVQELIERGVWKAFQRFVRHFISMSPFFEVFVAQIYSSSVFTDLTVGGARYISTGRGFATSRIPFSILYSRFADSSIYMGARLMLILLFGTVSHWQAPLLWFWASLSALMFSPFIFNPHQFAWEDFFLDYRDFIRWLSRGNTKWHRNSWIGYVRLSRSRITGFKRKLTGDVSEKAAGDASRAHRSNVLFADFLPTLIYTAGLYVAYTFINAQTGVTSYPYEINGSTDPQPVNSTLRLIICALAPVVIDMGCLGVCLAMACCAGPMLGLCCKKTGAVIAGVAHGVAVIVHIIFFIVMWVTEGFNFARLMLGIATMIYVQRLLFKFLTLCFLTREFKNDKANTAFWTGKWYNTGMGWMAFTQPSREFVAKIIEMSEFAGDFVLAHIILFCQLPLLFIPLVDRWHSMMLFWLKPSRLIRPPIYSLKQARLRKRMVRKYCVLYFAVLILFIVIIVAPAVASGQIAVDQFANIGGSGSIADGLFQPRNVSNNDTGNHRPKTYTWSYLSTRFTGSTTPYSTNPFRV
- method-summary: Glucan synthase inhibition (polymerization assay, 96-well)
- Format: biochemical
- condition-summary: GS from C. albicans MY1055; 60 min incubation at 22° C.; read-out: Candida Albicans GS IC50 (converted)
measurement-type: IC50 (nM)

Example cases with answers are listed next.
compound	IC50 [nM]
CC(C)[C@@H](C)[C@@]1(C)CC[C@]2(C)[C@H]3CC[C@@H]4[C@@]5(COC[C@@]4(C)[C@@H](OC[C@](C)(N)C(C)C)[C@H](n4ncnc4C4=NCCN4)C5)C3=CC[C@@]2(C)[C@@H]1C(=O)O	8.49
CC(C)[C@@H](C)[C@@]1(C)CC[C@]2(C)[C@H]3CC[C@@H]4[C@@]5(COC[C@@]4(C)[C@@H](OCC(C)(C(C)C)N(C)C)[C@H](n4ncnc4Cl)C5)C3=CC(=O)[C@@]2(C)[C@@H]1C(=O)O (stereo partly drawn)	36.3
CCS(=O)(=O)c1ncnn1[C@@H]1C[C@@]23COC[C@](C)([C@@H]2CC[C@H]2C3=CC[C@@]3(C)[C@H](C(=O)O)[C@@](C)([C@H](C)C(C)C)CC[C@]23C)[C@H]1OC[C@](C)(N)C(C)C	6.84
CC(C)[C@@H](C)[C@@]1(C)CC[C@]2(C)[C@H]3CC[C@@H]4[C@@]5(COC[C@@]4(C)[C@@H](OC[C@@]4(C)CCCN4)[C@H](n4ncnc4-c4ccncc4)C5)C3=CC[C@@]2(C)[C@@H]1C(=O)O	5.6

P = CC(C)[C@@H](C)[C@@]1(C)CC[C@]2(C)[C@H]3CC[C@@H]4[C@@]5(COC[C@@]4(C)[C@@H](OC[C@](C)(N)C(C)C)[C@H](n4ncnc4-c4ccc(N)cc4)C5)C3=CC[C@@]2(C)[C@@H]1C(=O)O
Q = CC(C)[C@@H](C)[C@@]1(C)CC[C@]2(C)[C@H]3CC[C@@H]4[C@@]5(COC[C@@]4(C)[C@@H](OC[C@](C)(N)C(C)(C)C)[C@H](n4ncnc4-c4ccc(O)nc4)C5)C3=CC[C@@]2(C)[C@@H]1C(=O)O
R = CC(C)[C@@H](C)[C@@]1(C)CC[C@]2(C)[C@H]3CC[C@@H]4[C@@]5(COC[C@@]4(C)[C@@H](OC[C@](C)(N)C(C)C)[C@H](n4cnc(Br)n4)C5)C3=CC[C@@]2(C)[C@@H]1C(=O)O
S = CCCNC(=O)c1ncnn1[C@@H]1C[C@@]23COC[C@](C)([C@@H]2CC[C@H]2C3=CC[C@@]3(C)[C@H](C(=O)O)[C@@](C)([C@H](C)C(C)C)CC[C@]23C)[C@H]1OC[C@@](C)(N)C(C)C
Put the entries in order of IC50, starting with the largest number. Sort and list the labels as requested.
R, S, P, Q
